In this section, each of the compounds is paired with its reported combination Emax.
- Test system: MDA-MB-175-VII (Breast Carcinoma)
- Measurement Protocol: combination Emax (second highest fraction inhibited in the dose matrix, 72 h); higher = more inhibition; extreme values may be limits of the assay

>  <Compound>
COc1cccc(OCCCN)c1-c1cc(Nc2cnc(C#N)cn2)n[nH]1 [Prexasertib] + C=CCn1c(=O)c2cnc(Nc3ccc(N4CCN(C)CC4)cc3)nc2n1-c1cccc(C(C)(C)O)n1 [AZD1775] (first compound max 1 µM, partner max 1 µM)

>  <combination Emax>
0.424

$$$$

Input: MDA-MB-175-VII (Breast Carcinoma) / combination Emax / CN(CCO)CC[C@H](CSc1ccccc1)Nc1ccc(S(=O)(=O)NC(=O)c2ccc(N3CCC([C@@H](O)c4ccccc4-c4ccc(Cl)cc4)CC3)cc2)cc1S(=O)(=O)C(F)(F)F [AZD4320] + CCN(CCO)CCCOc1ccc2c(Nc3cc(CC(=O)Nc4cccc(F)c4)[nH]n3)ncnc2c1 [AZD2811] (first compound max 1 µM, 7x7, partner max 1 µM) : value?
Output: 0.413

Input: Same for CN(C)CCCOc1ccc(-c2ccc3ncc4c(c3c2)n(C2CCOCC2)c(=O)n4C)cn1 [AZD0156] + O=C(c1cc(Cc2n[nH]c(=O)c3ccccc23)ccc1F)N1CCN(C(=O)C2CC2)CC1 [Olaparib] (first compound max 3 µM, partner max 3 µM)
Output: 0.198

Input: Similarly, CN(CCO)CC[C@H](CSc1ccccc1)Nc1ccc(S(=O)(=O)NC(=O)c2ccc(N3CCC([C@@H](O)c4ccccc4-c4ccc(Cl)cc4)CC3)cc2)cc1S(=O)(=O)C(F)(F)F [AZD4320] + CS(=O)(=O)CCNCc1ccc(-c2ccc3ncnc(Nc4ccc(OCc5cccc(F)c5)c(Cl)c4)c3c2)o1 [Lapatinib] (first compound max 1 µM, 7x7, partner max 10 µM) ?
Output: 1

Input: Entry CCN(CCO)CCCOc1ccc2c(Nc3cc(CC(=O)Nc4cccc(F)c4)[nH]n3)ncnc2c1 [AZD2811] + O=C(c1cc(Cc2n[nH]c(=O)c3ccccc23)ccc1F)N1CCN(C(=O)C2CC2)CC1 [Olaparib] (first compound max 1 µM, 7x7, partner max 10 µM) please
Output: 0.23

Input: Next: NC1(C(=O)N[C@@H](CCO)c2ccc(Cl)cc2)CCN(c2ncnc3[nH]ccc23)CC1 [Capivasertib] + COc1nnc2ccc(N3CCC(c4ccc(OCCN5CCN(C)C(=O)[C@H]5C)cc4)CC3)nn12 [AZD5153] (first compound max 10 µM, 7x7, partner max 1 µM)
Output: 0.571
